system: A2780; experiment: Anti-proliferative effect (CellTiter-Glo, 72 h), A2780; type: cell-based; conditions: A2780 cells, median, read-out: IC50 antiproliferation assay A2780 [M] (median)
Listing of recorded IC50 by entry.

Reference set, count: 2
compound="O=C(O)c1c(CCCOc2cccc3ccccc23)c2cccc3c2n1CCCCOCc1nn2c(c1-3)OCCC2 (racemic) [Example 247]" result="> 3.3e-05 M"
compound="Cn1nc(CCN2CCOCC2)c2c1COCCCCn1c(C(=O)O)c(CCCOc3cccc4ccccc34)c3cccc-2c31 (single isomer, unassigned; enantiomer 2)" result="> 3.3e-05 M"

In the following, a different compound is considered.
QUERY: Missing value: IC50, A2780, entry Cc1c2c(nn1C)COCCCCn1c(C(=O)O)c(CCCOc3cccc4ccccc34)c3cccc-2c31 (single isomer, unassigned; enantiomer 2) . Fill in?
RESULT: > 3.3e-05 M

----------
tested on: SUDHL5; test: Induction of cytotoxicity (CellTiter-Glo, 5 h), SUDHL5; settings: read-out: Cytotox SUDHL5 [M] (median); SUDHL5 cells, cytotoxicity induction, CellTiter-Glo, 5 h incubation, median
measured_parameter: IC50

Reference set, count: 3
molecule="Cn1nc(COc2ccccc2)c2c1COCCCCn1c(C(=O)O)c(CCCOc3cccc4ccccc34)c3cccc-2c31 (single isomer, unassigned)" measured_parameter=IC50 result="> 3.3e-05 M"
molecule="CN1CCCn2c(C(=O)O)c(CCCOc3cccc4ccccc34)c3cccc(c32)-c2c(COc3ccccc3)nn(C)c2C1 (single isomer, unassigned)" measured_parameter=IC50 result="> 3.3e-05 M"
molecule="COCC(=O)N1CCN(c2ccc(OCc3nn(C)c4c3-c3cccc5c(CCCOc6cccc7ccccc67)c(C(=O)O)n(c35)CCCCOC4)cc2)CC1 (single isomer, unassigned; enantiomer 1) [Example 1-28]" measured_parameter=IC50 result="> 3.3e-05 M"

In the following, a different molecule is considered.
QUERY: Missing value: IC50, SUDHL5, entry COCCn1nc(C2CC2)c2c1COCCCCn1c(C(=O)O)c(CCCOc3cccc4ccccc34)c3cccc-2c31 (single isomer, unassigned; enantiomer 2) [Example 104] . Fill in?
RESULT: > 3.3e-05 M

----------
Tested on: A2780
Assay: Anti-proliferative effect (CellTiter-Glo, 72 h), A2780
Type: cell-based
Conditions: A2780 cells, median, read-out: IC50 antiproliferation assay A2780 [M] (median)
Description: Assessment of the Anti-Proliferative Effect of Compounds in Different Cell Lines The impact of compounds on the proliferation of different cell lines was assessed using the CellTiter-Glo® Luminescent Cell Viability reagent from Promega (G7573). […] After 72 h incubation, the treated plates were measured in the same way as the day 0 plate mentioned above.
measured_parameter: IC50

Reference set, count: 2
compound="CCOCc1nn(C)c2c1-c1cccc3c(CCCOc4cccc5c4CCCC5)c(C(=O)O)n(c13)CCCCOC2 (single isomer, unassigned; enantiomer 2) [Example 172]" result="> 3.3e-05 M"
compound="Cn1ccnc1COCc1nn(C)c2c1-c1cccc3c(CCCOc4cccc5ccccc45)c(C(=O)O)n(c13)CCCCOC2 (single isomer, unassigned) [Example 233]" result="> 3.3e-05 M"

In the following, a different compound is considered.
QUERY: Fill in: IC50 of CN1CCCCn2c(C(=O)O)c(CCCOc3cccc4ccccc34)c3cccc(c32)-c2c(CC(F)(F)F)nn(C)c2C1 (single isomer, unassigned) [Example 223] is ___
RESULT: > 3.3e-05 M
